# Tested on: PC-3
# Run Description: Cytotoxicity against human PC3 cells after 72 hrs by MTT assay
# Type: functional, cell-based
# Assay Context: PC-3, 72 h
pIC50 listing for selected molecules.
Would you please state pIC50, meaning minus log10 of the concentration in mol/L, as a bare number?

Check out these entries, answers already filled in.
CN(C)CCCN1C(=O)c2cccc3c2c(cc2nnn(CCN(C)C)c23)C1=O :: 5.48
CN(C)CCN1C(=O)c2cccc3cc(N)cc(c23)C1=O [AMONAFIDE] :: 5.09
CN(C)CCCN1C(=O)c2cccc3c2c(cc2nnn(CCCN(C)C)c23)C1=O :: 5.92

// map "CN(C)CCN1C(=O)c2cccc3c2c(cc2nnn(C)c23)C1=O" to recorded pIC50 (system: PC-3)
5.80

// map "CCCCn1nnc2cc3c4c(cccc4c21)C(=O)N(CCCN(C)C)C3=O" to recorded pIC50 (system: PC-3)
4.81

// map "CN(C)CCN1C(=O)c2cccc3cc(Nc4ccc([N+](=O)[O-])cc4)cc(c23)C1=O" to recorded pIC50 (system: PC-3)
6.39

// map "CN(C)CCN1C(=O)c2cccc3c2c(cc2nnn(CCO)c23)C1=O" to recorded pIC50 (system: PC-3)
5.37

// map "CCCCn1nnc2cc3c4c(cccc4c21)C(=O)N(CCN(C)C)C3=O" to recorded pIC50 (system: PC-3)
5.32

// map "COc1ccc(Nc2cc3c4c(cccc4c2)C(=O)N(CCN(C)C)C3=O)cc1" to recorded pIC50 (system: PC-3)
5.79

// map "CN(C)CCCn1nnc2cc3c4c(cccc4c21)C(=O)N(CCN(C)C)C3=O" to recorded pIC50 (system: PC-3)
6.15
